Assay: Cytotoxic activity against NIH-3T3
Type: cell-based
Conditions: mouse
Counter-ions that a name gives are not always drawn.
measured_endpoint: IC50 (µM)
Kindly answer with a numeric value in µM, unit omitted.

## Task // Input: CC/C(=C(\c1ccccc1)c1ccc(OCCN(C)C)cc1)c1ccccc1 [tamoxifen citrate, reference compound] . Output its IC50 only.
## Result 16.4

====

Test: in vitro
measured_endpoint: IC50

## Task Read the entry C[C@H]1CC[C@@H]2C(C)(C)[C@@H](O)CC[C@@]2(C)[C@]12Cc1c(O)cc3c(c1O2)CN(CCCCC(C(=O)O)N1Cc2c(cc(O)c4c2O[C@@]2(C4)[C@@H](C)CC[C@@H]4C(C)(C)[C@@H](O)CC[C@]42C)C1=O)C3=O (stereo partly shown) [Compound 12, stachybocin A] and write its reported IC50.
## Result > 50 µM
